Target: Jak2 (human Jak2 kinase domain, amino acids 808-1132) (Homo sapiens (Human))
Sequence (O60674 808-1132): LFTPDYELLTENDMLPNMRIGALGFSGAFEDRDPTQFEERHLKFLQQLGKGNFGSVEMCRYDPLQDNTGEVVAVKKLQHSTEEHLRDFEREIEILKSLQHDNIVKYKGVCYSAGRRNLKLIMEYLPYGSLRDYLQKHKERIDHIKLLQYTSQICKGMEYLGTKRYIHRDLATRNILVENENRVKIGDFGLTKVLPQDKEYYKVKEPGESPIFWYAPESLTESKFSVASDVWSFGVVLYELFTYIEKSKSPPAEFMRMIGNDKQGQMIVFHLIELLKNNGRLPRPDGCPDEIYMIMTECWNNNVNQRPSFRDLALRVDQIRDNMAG
Assay: Jak2 inhibition assay (Omnia kinase assay)
Type: biochemical
Details: read-out: Jak2 (% inhibition at 1000 nM), Table 2; 1000 nM test compound
endpoint_label: inhibition at 1 µM (%)

Some molecules with recorded inhibition at 1 µM:
>  <molecule>
O=C(NC1(C(F)(F)F)CC1)c1cnn2ccc(N3CCC[C@@H]3c3cncc(F)c3)nc12 [Example 98]

>  <inhibition at 1 µM / %>
27.8

$$$$
>  <molecule>
NC(=O)c1cnn2ccc(N3CCC[C@@H]3c3cc(F)ccc3F)nc12 [Example 30]

>  <inhibition at 1 µM / %>
30.4

$$$$
>  <molecule>
CNC(=O)c1cnn2ccc(N3CCC[C@@H]3c3cncc(F)c3)nc12 [Example 114]

>  <inhibition at 1 µM / %>
15.6

$$$$
>  <molecule>
CC(C)NC(=O)c1cnn2ccc(N3CCC[C@@H]3c3cncc(F)c3)nc12 [Example 93]

>  <inhibition at 1 µM / %>
42.2

$$$$
>  <molecule>
COc1ncc(F)cc1[C@H]1CCCN1c1ccn2ncc(C(=O)N[C@H]3CC[C@H](O)CC3)c2n1 [Example 140]

>  <inhibition at 1 µM / %>
98.5

$$$$

(P) O=C(NCC1CC1)c1cnn2ccc(N3CCC[C@@H]3c3cncc(F)c3)nc12 [Example 106]
(Q) O=C(NC1CC1)c1cnn2ccc(N3CCC[C@@H]3c3cncc(F)c3)nc12 [Example 52]
(R) CC1(NC(=O)c2cnn3ccc(N4CCC[C@@H]4c4cncc(F)c4)nc23)CC1 [Example 91]
Which order do these items take when sorted by rising inhibition at 1 µM? List them. Rank the items, then write their labels in that order.
Q, P, R
